System tested: T1, recombinant mouse DLL4 (C-terminally His-tagged extracellular domain, R&D Systems) (mouse, UniProt Q9JI71 27-532)
T1 construct: extracellular domain; also called rmDLL4; mDLL4
T1 sequence (Q9JI71 27-532): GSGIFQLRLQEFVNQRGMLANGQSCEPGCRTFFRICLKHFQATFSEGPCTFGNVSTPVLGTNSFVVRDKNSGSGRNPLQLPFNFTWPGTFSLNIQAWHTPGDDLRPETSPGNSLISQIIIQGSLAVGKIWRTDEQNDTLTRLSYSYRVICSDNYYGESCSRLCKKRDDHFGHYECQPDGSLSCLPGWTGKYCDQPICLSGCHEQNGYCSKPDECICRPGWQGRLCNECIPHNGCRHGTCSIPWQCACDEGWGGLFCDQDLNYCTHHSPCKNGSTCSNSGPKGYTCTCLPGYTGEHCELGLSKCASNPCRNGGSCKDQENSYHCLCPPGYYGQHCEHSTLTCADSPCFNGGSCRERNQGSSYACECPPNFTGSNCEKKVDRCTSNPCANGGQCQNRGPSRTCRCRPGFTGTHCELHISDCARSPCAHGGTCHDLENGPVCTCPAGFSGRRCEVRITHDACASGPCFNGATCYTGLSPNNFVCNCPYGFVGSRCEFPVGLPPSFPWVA
Test: SPR (Biacore); summary table
Each record here notes measured Kd.
I'd appreciate it if you included the unit after the number.

{"Binder": "DLLBII015 (VHH, not shown: small tags and cut ends) VHH: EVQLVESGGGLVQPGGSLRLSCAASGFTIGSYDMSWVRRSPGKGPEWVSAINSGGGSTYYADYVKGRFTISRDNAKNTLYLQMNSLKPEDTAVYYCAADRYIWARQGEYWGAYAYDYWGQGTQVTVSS", "Quantity kind": "Kd", "Measured": "4.3 nM"}

-- ask # return recorded Kd for entry DLLBII133A09 (VHH, not shown: small tags and cut ends) VHH: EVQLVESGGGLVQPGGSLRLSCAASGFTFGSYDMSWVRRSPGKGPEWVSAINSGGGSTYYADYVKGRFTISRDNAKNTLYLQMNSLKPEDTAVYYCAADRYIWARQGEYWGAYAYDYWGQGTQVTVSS
-- reply 7.8 nM
